# System: MDCK cells
# Assay context: dog
Observation type: CC50 (half-maximal cytotoxic concentration) (µg/mL)
Field: numeric (µg/mL). Do not append units.

Some entries whose results are on file:
COc1cc(C2Oc3cc([C@H]4Oc5cc(O)cc(O)c5C(=O)[C@@H]4O)ccc3OC2CO)ccc1O (some centres unmarked): 9480
O=C[C@H](O)[C@@H](O)[C@@H](O)[C@H](O)C(=O)O: 9610
C[C@@H]1CC[C@@]2(OC1)O[C@H]1[C@@H](O)[C@H]3[C@@H]4CC[C@H]5C[C@@H](O[C@@H]6O[C@H](CO)[C@H](O[C@@H]7O[C@H](CO)[C@@H](O)[C@H](O[C@@H]8OC[C@@H](O)[C@H](O)[C@H]8O)[C@H]7O[C@@H]7O[C@H](CO)[C@H](O)[C@H](O[C@@H]8O[C@H](CO)[C@@H](O)[C@H](O)[C@H]8O)[C@H]7O)[C@H](O)[C@H]6O)[C@H](O)C[C@]5(C)[C@H]4CC[C@]3(C)[C@H]1[C@@H]2C: 442

For reference, reported CC50 (half-maximal cytotoxic concentration) for O=C[C@H](O)[C@@H](O)[C@H](O)[C@H](O)C(=O)O stands at 10260

For reference, reported CC50 (half-maximal cytotoxic concentration) for CC[C@H](CC[C@@H](C)[C@H]1CC[C@H]2[C@@H]3CC=C4C[C@@H](O[C@@H]5O[C@H](CO)[C@@H](O)[C@H](O)[C@H]5O)CC[C@]4(C)[C@H]3CC[C@]12C)C(C)C [β-sitosterol-O-glucoside] stands at 1750

Each recorded value in this set is attributed to paper PMC9964242.
